Target: T1, FLAG tagged Dap10 alone on transfected 293 EBNA cells (UniProt Q9UBK5 19-93)
T1 construct: whole, on cells
T1 sequence: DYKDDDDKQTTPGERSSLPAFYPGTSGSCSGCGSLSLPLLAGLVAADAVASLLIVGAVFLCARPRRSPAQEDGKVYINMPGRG
Test: flow cytometry, transfected 293 EBNA cells, 2 µg Fc protein + goat anti-human IgG PE
Collected Mean Fluorescence Intensity (MFI) values appear next to each entry.
VALUE KIND: Mean Fluorescence Intensity (MFI)

# BINDER, VALUE KIND, RESULT
data = [
    ("UL16-Fc fusion protein (Fc fusion, extracellular domain; not shown: IgG1 Fc (mutein form), as described for OX40-Fc (Baum et al., EMBO J. 13:3992-4001, 1994); the mutein is described in p-) VDLGSKSSNSTCRLNVTELASIHPGETWTLHGMCISICYYENVTEDEIIGVAFTWQHNESVVDLWLYQNDTVIRNFSDITTNILQDGLKMRTVPVTKLYTSRMVTNLTVGRYDCLRCENGTTKIIERLYVRLGSLYPRPPGSGLAKHPSVSADEELSA", "Mean Fluorescence Intensity (MFI)", "39.2 MFI"),
    ("ULBP3/Fc (Fc fusion, That entry lacks the first five residues of the leader and still holds the rest of the signal peptide and the GPI signal; not shown: Fc portion of ULBP3/Fc is not described) DAHSLWYNFTIIHLPRHGQQWCEVQSQVDQKNFLSYDCGSDKVLSMGHLEEQLYATDAWGKQLEMLREVGQRLRLELADTELEDFTPSGPLTLQVRMSCECEADGYIRGSWQFSFDGRKFLLFDSNNRKWTVVHAGARRMKEKWEKDSGLTTFFKMVSMRDCKSWLRDFLMHRKKRLEPTAPPTMAPG", "Mean Fluorescence Intensity (MFI)", "14 MFI"),
    ("MICB/Fc (Fc fusion, UniProt Q29980 23-309, looked up, also called MICB1/FC; not shown: Fc portion not described) AEPHSLRYNLMVLSQDGSVQSGFLAEGHLDGQPFLRYDRQKRRAKPQGQWAENVLGAKTWDTETEDLTENGQDLRRTLTHIKDQKGGLHSLQEIRVCEIHEDSSTRGSRHFYYDGELFLSQNLETQESTVPQSSRAQTLAMNVTNFWKEDAMKTKTHYRAMQADCLQKLQRYLKSGVAIRRTVPPMVNVTCSEVSEGNITVTCRASSFYPRNITLTWRQDGVSLSHNTQQWGDVLPDGNGTYQTWVATRIRQGEEQRFTCYMEHSGNHGTHPVPSGKALVLQSQRTD", "Mean Fluorescence Intensity (MFI)", "18.4 MFI"),
    ("MICA/Fc (Fc fusion, UniProt Q29983 24-307, looked up, not shown: Fc portion not described) EPHSLRYNLTVLSWDGSVQSGFLTEVHLDGQPFLRCDRQKCRAKPQGQWAEDVLGNKTWDRETRDLTGNGKDLRMTLAHIKDQKEGLHSLQEIRVCEIHEDNSTRSSQHFYYDGELFLSQNLETKEWTMPQSSRAQTLAMNVRNFLKEDAMKTKTHYHAMHADCLQELRRYLKSGVVLRRTVPPMVNVTRSEASEGNITVTCRASGFYPWNITLSWRQDGVSLSHDTQQWGDVLPDGNGTYQTWVATRICQGEEQRFTCYMEHSGNHSTHPVPSGKVLVLQSHW", "Mean Fluorescence Intensity (MFI)", "12 MFI"),
]
